- assay details: label from the status in PepcDB records
result type: protein production

1) MTPQRATLTGMLAIILWSTSVGLIRSLTEALGPIGGAAMIYSTSTLCLLVFYGLPRIKTLPRIYLFAGGALFVCYEIFLSLSIGLADSRMQAMEIGMINYLWPSLTILFSLFINQQKSRFLLWPGLVISLGGIVWIMKGESDWTPELLWNNILANPLAYSLAFSAALTWALYCNITKRYGQGKSGVSLFFFIASLVLWIQYSFSAEGPISLTLPSSLELLFMGASAALAYSAWNAGIQYGNLTLLATASYFTPVLSTLLAAIWLNITPAISFWQGVAMVTAGSLLCWYATRSSTR failed
2) MIDWPLAELLPHAGDMILIDQVLAFDEEQIRTRLEVRPGGLFNRPDGSLPAWVGVELMAQSVAAYAGCRARQQGLPVELGFLLGTRKFECNVEHFPLGSTLEIHALRSLEDDNGMGVFECHLSGPGITASARLNVFRPPQAADYLHETPASSTGTPS failed
3) MPQPDPQGFRRSLFLYRRAGMAEIGDFAVKFMIGIRSKRMITLPSLNNLPSKWDEIRHCLETRVFECGVMPYPNLTECEAGQFERDFWDNIGCAPEEYVRIRRAIRLLELRYPDSLNELVCAAIATPLGEMLAVFGVKGLCLLEFVGQKYLEQEIAAVQKALRGRFVFREDGRMQFLRQELDLYFKGHLKTFATPLEQIGTEFQKQAWDALLAIPYGETRSYKEQAQRLGNPKAVRAVAAANGQNKVSVMIPCHRVIGSDGKLTGYAGGLNRKQFLLALERGEVQTALF failed

* * *

- assay details: label from the status in PepcDB records
result type: protein production

1) MPGTKQVNVGSLKVGQYVMIDGVPCEIVDISVSKPGKHGGAKARVVGIGIFEKVKKEFVAPTSSKVEVPIIDRRKGQVLAIMGDMVQIMDLQTYETLELPIPEGIEGLEPGGEVEYIEAVGQYKITRVIGGK not failed
2) MNITGIIAEYNPMHNGHIHHLEKTKEICKSDVILCVMSGDFVQRGEPAIIDKWSRAYAALSSGVDLVIELP failed
3) RKFEGMKTVQLICIKMSCIMLFFVSGYAKGTQEEHTMQFGEEKTTYLLHLPKGYIQGKAYSLVVNFHGLGSAAIKHQHYCQLDAVADKEGFIAVYPQSYHQGWNAGLGFTSYIQGHDDIAYFNALLDTLEAAYSIDKNRIYVTGVSLGGSFTYRIACEMSKRIAAIASVSGLMSDSTLIYCTPERSVPVMHIHGTKDHIMRYTGMKQAFGAEEVVRLWALKDQCENKPDTVFVPNTSKKDHTSSILIKYTHCANGSEVWFYKIYNGGHTWPGAAKAFKLMGRKSKDFNG failed
4) PVLTQTSEQAPSSAPRDVQARMLSSTTILVQWKEPEEPNGQIQGYRVYYTMDPTQHVNNWMKHNVADSQITTIGNLVPQKTYSVKVLAFTSIGDGPLSSDIQVITQTG not failed

* * *

- assay details: label from the status in PepcDB records
result type: protein production

1) MVNNDTLSGDVYTASEAKQVQNVSYGTIVNVRPVQIQGGDDSNVIGAIGGAVLGGFLGNTVGGGTGRSLATAAGAVAGGVTGQGVQSAMNKTQGVELEIRKDDGNTIMVVQKQGNTRFSPGQRVVLASNGSQVTVSPRLEHHHHHH failed
2) MSCHLSYLEGTMEFMISGRNLTVSDRFREYAGEKISKIESLGDKVQRVDAKVSKETNPRQTPGELTVEVTVLGRGPVIRAEATAADKFAAFDLAYNKLLERLRRAKDRKKVHHGRHTPKAVREATATLEPASASEPLYVEASNHQESAPPVDERSPYDIENDIPAGDSPVLIRRKVFPAASLTLDDAVDNMELVGHNFYLFLDKETNAPSVVYRRSGWTYGVITLDSTCEPGEEAVEEKIHAYRSDDQAATAK failed
